# target-under-test: USP7 (Homo sapiens)
# Construct: The USP7 construct was PCR amplified and cloned into a pFLAG-CMV-6a vector (Sigma-Aldrich) with an N-terminal FLAG tag; made in house; host or cells: HEK293T
# assay-remarks: USP7 biochemical IC50 assay (fluorescence polarisation, TAMRA labelled peptide linked to ubiquitin via an iso-peptide bond)
# conditions-used: 30 min pre-incubation of enzyme and compound, read after 2 hr incubation at room temperature, read-out: IC50 range
Please provide measured IC50 for the entries that follow.

{"compound": "CC(C)(O)CNc1cc2c(c(-c3ccc(C#N)cc3)c1)CN(C#N)C2", "IC50": "1 to 10 µM"}
{"compound": "N#CN1Cc2nccc(-c3ccc(Cl)cc3)c2C1", "IC50": "1 to 10 µM"}
{"compound": "N#Cc1cc(F)ccc1-c1cc(C(N)=O)cc2c1CN(C#N)C2", "IC50": "1 to 10 µM"}

Need IC50 for each of these compounds.
1. N#CN1Cc2nc(NCC3CCOCC3)cc(-c3ccc(F)cc3)c2C1
2. Cn1cc(-c2cc3c(c(-c4ccccc4)c2)CN(C#N)C3)ccc1=O
3. Cc1[nH]ncc1-c1nc2c(c(N3CCCC3)n1)CN(C#N)C2

1 to 10 µM
1 to 10 µM
10 to 30 µM

Need IC50 for each of these compounds.
1. CNC(=O)c1cc2c(c(-c3ccc(F)cc3)c1)CN(C#N)C2
2. CNc1cc2c(c(-c3ccc(C#N)cc3)c1)CN(C#N)C2
3. N#Cc1ccccc1-c1cc(NC[C@H](O)CO)cc2c1CN(C#N)C2
4. CN1CCCC(C(=O)Nc2cc3c(c(-c4ccccc4)c2)CN(C#N)C3)C1 (racemic)

1. < 1 µM
2. 1 to 10 µM
3. < 1 µM
4. < 1 µM

---

Please provide measured IC50 for the entries that follow.
# target-under-test: USP7 (Homo sapiens, UniProt Q93009)
# Construct: The USP7 construct was PCR amplified and cloned into a pFLAG-CMV-6a vector (Sigma-Aldrich) with an N-terminal FLAG tag; made in house; host or cells: HEK293T
# Sequence (Q93009 whole entry): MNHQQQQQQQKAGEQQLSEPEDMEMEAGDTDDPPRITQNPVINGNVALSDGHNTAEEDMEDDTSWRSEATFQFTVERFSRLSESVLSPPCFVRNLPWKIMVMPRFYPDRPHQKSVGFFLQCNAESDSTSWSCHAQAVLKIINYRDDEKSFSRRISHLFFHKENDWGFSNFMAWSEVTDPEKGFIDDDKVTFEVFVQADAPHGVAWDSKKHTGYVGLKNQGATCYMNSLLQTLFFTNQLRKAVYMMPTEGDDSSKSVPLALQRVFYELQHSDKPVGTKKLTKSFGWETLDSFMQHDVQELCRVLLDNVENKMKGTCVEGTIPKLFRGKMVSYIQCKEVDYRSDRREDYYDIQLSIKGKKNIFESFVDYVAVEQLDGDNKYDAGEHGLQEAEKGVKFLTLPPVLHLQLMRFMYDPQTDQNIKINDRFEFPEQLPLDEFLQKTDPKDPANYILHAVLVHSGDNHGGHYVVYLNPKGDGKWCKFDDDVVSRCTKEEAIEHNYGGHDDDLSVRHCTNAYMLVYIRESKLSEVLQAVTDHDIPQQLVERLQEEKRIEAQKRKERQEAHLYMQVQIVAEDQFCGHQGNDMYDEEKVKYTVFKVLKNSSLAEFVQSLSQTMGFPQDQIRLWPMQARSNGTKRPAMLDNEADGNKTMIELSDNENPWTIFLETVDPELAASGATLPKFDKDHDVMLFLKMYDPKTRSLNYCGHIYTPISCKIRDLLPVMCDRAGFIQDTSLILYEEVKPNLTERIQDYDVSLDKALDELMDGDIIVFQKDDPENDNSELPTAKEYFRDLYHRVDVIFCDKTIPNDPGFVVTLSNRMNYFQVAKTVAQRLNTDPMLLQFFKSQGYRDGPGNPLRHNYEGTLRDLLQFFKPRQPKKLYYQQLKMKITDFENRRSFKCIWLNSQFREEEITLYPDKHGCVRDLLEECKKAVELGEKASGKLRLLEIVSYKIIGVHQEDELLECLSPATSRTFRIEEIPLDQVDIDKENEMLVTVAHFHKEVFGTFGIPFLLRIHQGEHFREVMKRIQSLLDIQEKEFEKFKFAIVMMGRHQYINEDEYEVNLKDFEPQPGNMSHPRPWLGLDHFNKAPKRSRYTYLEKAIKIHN
# assay-remarks: USP7 biochemical IC50 assay (fluorescence polarisation, TAMRA labelled peptide linked to ubiquitin via an iso-peptide bond)
# conditions-used: 30 min pre-incubation of enzyme and compound, read after 2 hr incubation at room temperature, read-out: IC50 range
# Experimental: In Vitro USP7 Inhibition Assay Expression and Purification of USP7 The USP7 construct was PCR amplified and cloned into a pFLAG-CMV-6a vector (Sigma-Aldrich) with an N-terminal FLAG tag. […] A typical 8-point dilution series would be 100, 30, 10, 3, 1, 0.3, 0.1, 0.03 μM final. […] Reactions were initiated by the addition of 50 nM of TAMRA labelled peptide linked to ubiquitin via an iso-peptide bond as fluorescence polarisation substrate. […]

Example results:
{"chemical-string": "CN1CCC[C@@H](C(=O)Nc2cc3c(c(-c4cccnc4)c2)CN(C#N)C3)C1", "result": "1 to 10 µM"}
{"chemical-string": "N#CN1Cc2nc(NCCO)nc(-c3cccc(N4CCOC4=O)c3)c2C1", "result": "< 1 µM"}
{"chemical-string": "N#Cc1ccc(-c2cccc3c2CN(C#N)C3)c2c1CCC2=O", "result": "1 to 10 µM"}
{"chemical-string": "Cc1ccc(-c2cccc3c2CN(C#N)C3)c(C(N)=O)c1", "result": "1 to 10 µM"}
{"chemical-string": "N#CN1Cc2cccc(-c3ccccc3C(=O)NCCN)c2C1", "result": "1 to 10 µM"}
{"chemical-string": "Cn1cc(C(=O)NCc2cc3c(c(-c4ccc(C#N)cc4)c2)CN(C#N)C3)cn1", "result": "< 1 µM"}

Need IC50 for each of these compounds.
1. CN1CC=C(c2cccc3c2CN(C#N)C3)CC1
2. N#Cc1ccccc1-c1cccc2c1CN(C#N)C2
3. CC(=O)Nc1nc2c(c(N3CCc4ccccc4C3)n1)CN(C#N)C2

1. 1 to 10 µM
2. 1 to 10 µM
3. 1 to 10 µM

---

Please provide measured IC50 for the entries that follow.
# target-under-test: USP7 (Homo sapiens)
# Construct: The USP7 construct was PCR amplified and cloned into a pFLAG-CMV-6a vector (Sigma-Aldrich) with an N-terminal FLAG tag; made in house; host or cells: HEK293T
# assay-remarks: USP7 biochemical IC50 assay (fluorescence polarisation, TAMRA labelled peptide linked to ubiquitin via an iso-peptide bond)
# conditions-used: 30 min pre-incubation of enzyme and compound, read after 2 hr incubation at room temperature, read-out: IC50 range

Example results:
{"compound": "CNC(=O)c1cc2c(c(-c3ccc(C#N)cc3)c1)CN(C#N)C2 [Example 237]", "result": "1 to 10 µM"}
{"compound": "N#CN1Cc2cc(NC(=O)C3CCOCC3)cc(-c3ccccc3)c2C1 [Example 50]", "result": "< 1 µM"}
{"compound": "CS(=O)(=O)Cc1cc2c(c(-c3ccc(C#N)cc3)c1)CN(C#N)C2 [Example 216]", "result": "1 to 10 µM"}
{"compound": "CC(=O)NCc1cc2c(c(-c3ccccc3C#N)c1)CN(C#N)C2 [Example 225]", "result": "1 to 10 µM"}
{"compound": "CN1CCOC(CNc2nc3c(c(-c4ccc(F)cc4)n2)CN(C#N)C3)C1 (stereo not drawn) [Example 194]", "result": "1 to 10 µM"}

Need IC50 for each of these compounds.
1. N#Cc1cccc(-c2nc3c(c(N4CCc5ccccc5C4)n2)CN(C#N)C3)c1 [Example 141]
2. N#CN1Cc2nc(NC3CCCc4ccccc43)nc(-c3ccccc3)c2C1 (stereo not drawn) [Example 115]
3. C[C@@H](NC(=O)c1cccc(-c2cccc3c2CN(C#N)C3)c1)c1ccccc1 [Example 76]
4. CN(C)c1nc2c(c(N3CCC(Oc4ccccc4)CC3)n1)CN(C#N)C2 [Example 205]

1 to 10 µM
10 to 30 µM
1 to 10 µM
1 to 10 µM

---

Please provide measured IC50 for the entries that follow.
# target-under-test: USP7 (Homo sapiens)
# Construct: The USP7 construct was PCR amplified and cloned into a pFLAG-CMV-6a vector (Sigma-Aldrich) with an N-terminal FLAG tag; made in house; host or cells: HEK293T
# assay-remarks: USP7 biochemical IC50 assay (fluorescence polarisation, TAMRA labelled peptide linked to ubiquitin via an iso-peptide bond)
# conditions-used: 30 min pre-incubation of enzyme and compound, read after 2 hr incubation at room temperature, read-out: IC50 range

Example results:
{"molecule": "COc1ccc(-c2cccc3c2CN(C#N)C3)c(C#N)c1", "IC50": "1000 to 10000 nM"}
{"molecule": "CS(=O)(=O)Nc1cc2c(c(-c3ccc(C#N)cc3)c1)CN(C#N)C2", "IC50": "1000 to 10000 nM"}
{"molecule": "CN1CCOC(C(=O)Nc2cc3c(c(-c4ccccc4)c2)CN(C#N)C3)C1 (centres unmarked)", "IC50": "< 1000 nM"}
{"molecule": "N#CN1Cc2cccc(-c3cccc(C(=O)NCc4ccccc4)c3)c2C1", "IC50": "1000 to 10000 nM"}

Could you now consider this next molecule?
Request the reported IC50 associated with N#CN1Cc2nc(NCCCn3ccnc3)nc(-c3ccccc3)c2C1
1000 to 10000 nM

---

Please provide measured pIC50 for the entries that follow.
# target-under-test: USP7 (Homo sapiens)
# Construct: The USP7 construct was PCR amplified and cloned into a pFLAG-CMV-6a vector (Sigma-Aldrich) with an N-terminal FLAG tag; made in house; host or cells: HEK293T
# assay-remarks: USP7 biochemical IC50 assay (fluorescence polarisation, TAMRA labelled peptide linked to ubiquitin via an iso-peptide bond)
# conditions-used: 30 min pre-incubation of enzyme and compound, read after 2 hr incubation at room temperature, read-out: IC50 range
pIC50: −log10 of the molar value.

Example results:
{"molecule": "CC(=O)N1CCC(CCc2cc3c(c(-c4ccc(C#N)cc4)c2)CN(C#N)C3)CC1 [Example 257]", "pIC50": "5.00 to 6.00"}
{"molecule": "COCCc1cc2c(c(-c3ccccc3)c1)CN(C#N)C2 [Example 215]", "pIC50": "5.00 to 6.00"}
{"molecule": "N#CN1Cc2cccc(NC(=O)c3ccc(=O)n(Cc4ccccc4)c3)c2C1 [Example 87]", "pIC50": "5.00 to 6.00"}
{"molecule": "CC(=O)Nc1nc2c(c(-c3ccc(F)cc3)n1)CN(C#N)C2 [Example 187]", "pIC50": "5.00 to 6.00"}
{"molecule": "CN1CCOC(CNc2nc3c(c(-c4ccccc4)n2)CN(C#N)C3)C1 (single isomer, unassigned) [Example 152]", "pIC50": "5.00 to 6.00"}
{"molecule": "N#CN1Cc2cc(NC(=O)C3CNC(=O)C3)cc(-c3ccccc3)c2C1 (stereo not shown) [Example 42]", "pIC50": "> 6.00"}
{"molecule": "COc1ccc(-c2nc3c(c(N4CCCC4)n2)CN(C#N)C3)cc1 [Example 130]", "pIC50": "4.52 to 5.00"}
{"molecule": "COc1cc2cc(C(=O)Nc3cccc4c3CN(C#N)C4)[nH]c2cn1 [Example 85]", "pIC50": "5.00 to 6.00"}
{"molecule": "N#CN1Cc2cccc(-c3cnc4ccccc4c3)c2C1 [Example 8]", "pIC50": "5.00 to 6.00"}
{"molecule": "COC(CO)CNc1cc2c(c(-c3ccc(C#N)cc3)c1)CN(C#N)C2 (stereo not shown) [Example 284]", "pIC50": "5.00 to 6.00"}

Need pIC50 for each of these molecules.
1. CC(=O)Nc1nc2c(c(-c3cccc(NS(C)(=O)=O)c3)n1)CN(C#N)C2 [Example 109]
2. COc1ccc(C#N)c(-c2cccc3c2CN(C#N)C3)c1 [Example 172]
3. N#Cc1cc2c(c(-c3ccccc3C(N)=O)c1)CN(C#N)C2 [Example 231, 2-(2,6-dicyanoisoindolin-4-yl)benzamide]
4. Cn1nccc1CNc1cc2c(c(-c3ccc(C#N)cc3)c1)CN(C#N)C2 [Example 276]
5. CS(=O)(=O)Nc1cc2c(c(-c3ccccc3C#N)c1)CN(C#N)C2 [Example 242]

1. 5.00 to 6.00
2. 5.00 to 6.00
3. 5.00 to 6.00
4. 5.00 to 6.00
5. 5.00 to 6.00

Need pIC50 for each of these molecules.
1. CN1CC(C(=O)Nc2cc3c(c(-c4ccccc4)c2)CN(C#N)C3)CCC1=O (stereo not shown) [Example 44]
2. CN1CCC[C@@H](C(=O)Nc2cc3c(c(-c4cccc(F)c4)c2)CN(C#N)C3)C1 [Example 25]

> 6.00
> 6.00

Need pIC50 for each of these molecules.
1. COc1ccc(C#N)c(-c2cc(NS(C)(=O)=O)cc3c2CN(C#N)C3)c1 [Example 245]
2. CNc1nc2c(c(N3CCC(Oc4ccccc4)CC3)n1)CN(C#N)C2 [Example 204]
3. CN(C)C(=O)NCc1cc2c(c(-c3ccc(C#N)cc3)c1)CN(C#N)C2 [Example 223]
4. CCNS(=O)(=O)c1ccccc1-c1cccc2c1CN(C#N)C2 [Example 175]

["5.00 to 6.00", "5.00 to 6.00", "5.00 to 6.00", "5.00 to 6.00"]

Need pIC50 for each of these molecules.
1. Cn1cc(Nc2cc3c(c(-c4ccccc4)c2)CN(C#N)C3)cn1 [Example 5]
2. CNC(=O)NCc1cc2c(c(-c3ccccc3C#N)c1)CN(C#N)C2 [Example 229]
3. N#Cc1ccc(-c2cccc3c2CN(C#N)C3)c(C(=O)N2CCC2)c1 [Example 4]
4. N#CN1Cc2nc(NCCO)nc(N3CCc4ccccc4C3)c2C1 [Example 202]
5. N#CN1Cc2cccc(-c3ccccc3S(=O)(=O)NCCO)c2C1 [Example 179]
6. COc1ccc(-c2nc(NCCO)nc3c2CN(C#N)C3)cc1 [Example 211]

1: > 6.00; 2: 5.00 to 6.00; 3: 5.00 to 6.00; 4: 5.00 to 6.00; 5: 5.00 to 6.00; 6: > 6.00
